# assayed.target: T1, human IL-12 (human, UniProt P29460 23-328; P29459 23-219)
# T1 construct: Recombinant (Peprotech); FLAG-tagged IL-12 in the flow cytometry assays, biotinylated in the IL-12Rβ2 assay; also called hIL-12
# T1 sequence 1: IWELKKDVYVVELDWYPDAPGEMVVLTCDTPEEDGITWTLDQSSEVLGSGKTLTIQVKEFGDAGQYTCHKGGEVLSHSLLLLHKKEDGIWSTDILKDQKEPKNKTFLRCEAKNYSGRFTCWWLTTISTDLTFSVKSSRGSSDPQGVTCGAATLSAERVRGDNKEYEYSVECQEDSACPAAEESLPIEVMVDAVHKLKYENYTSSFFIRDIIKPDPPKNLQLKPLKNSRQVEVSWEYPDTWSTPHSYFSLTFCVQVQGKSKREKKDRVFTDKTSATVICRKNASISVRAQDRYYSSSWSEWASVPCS
# T1 sequence 2: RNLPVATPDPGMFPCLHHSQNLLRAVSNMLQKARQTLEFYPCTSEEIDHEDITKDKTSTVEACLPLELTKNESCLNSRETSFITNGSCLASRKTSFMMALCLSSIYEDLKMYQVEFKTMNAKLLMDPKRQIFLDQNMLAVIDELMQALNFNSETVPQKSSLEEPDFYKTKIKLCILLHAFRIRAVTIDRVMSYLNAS
# assay.comment: ELISA, coated IL-12
readout.name: binding result

[[record]]
binder = "Antibody 19 (antibody, human IgG1, kappa, V domains shown) VH: EVQLQQSGADLVRSGASIKLSCTASGFNIKDYYMHWVKQRPEQGLEWIGWIDPENGDTEYAPKFQGKATMTADTSSNTAYLQLSSLTSEDTAVYYCNASKELRYFDVWGAGTTVTVSS VL: DIVLTQSPATLSVTPGDSVSLSCRASQSISINLHWYQQKSHESPRLLIKFASQSISGIPSRFSGYGSGTDFTLSINSVETEDFGRYFCQQSNSWPLTFGAGTKLELKR"
endpoint_value = "binds"

[[record]]
binder = "Antibody 10 (antibody, human IgG1, kappa, V domains shown) VH: EVQLQQSGADLVRSGASIKLSCTASGFNIKDYYMHWVKQRPEQGLEWIGWIDPENGDTEYAPKFQGKATMTADTSSNTAYLQLSSLTSEDTAVYYCNAQKELRYFDVWGAGTTVTVSS VL: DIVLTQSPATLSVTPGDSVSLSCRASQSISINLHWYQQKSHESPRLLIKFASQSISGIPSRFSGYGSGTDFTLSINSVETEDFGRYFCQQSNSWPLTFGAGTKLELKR"
endpoint_value = "binds"

[[record]]
binder = "Antibody 5 (antibody, human IgG1, kappa, V domains shown) VH: EVQLQQSGADLVRSGASIKLSCTASGFNIKDYYMHWVKQRPEQGLEWIGWIDPENGDTEYAPKFQGKATMTADTSSNTAYLQLSSLTSEDTAVYYCNAAKELRYFDVWGAGTTVTVSS VL: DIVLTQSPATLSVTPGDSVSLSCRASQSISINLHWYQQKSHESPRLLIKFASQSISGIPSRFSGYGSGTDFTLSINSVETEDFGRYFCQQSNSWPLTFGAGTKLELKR"
endpoint_value = "binds"

